Data provenance is ChEMBL document CHEMBL3751718.

protocolDetails: Cytotoxicity against mouse NIH/3T3 cells assessed as cell viability at 6.25 to 50 ug/ml by neutral red-based assay
conditionNotes: nih3t3
Define the label as rule met when LC50 is strictly less than 90 µM and as rule not met in all remaining cases.

// below: answered molecules
[
  {
    "chemicalStructure": "CCCCCCCCCC[n+]1csc(CCOCCCCCCC)c1C.[I-]",
    "label": "rule met"
  },
  {
    "chemicalStructure": "CCCCCCCCCCCOCCc1sc[n+](C)c1C.[I-]",
    "label": "rule not met"
  },
  {
    "chemicalStructure": "CCCCCCCOCCc1scnc1C",
    "label": "rule not met"
  }
]

Would you kindly verify if LC50 of CCCCCCCCCCCOCCc1scnc1C is strictly less than 90 µM?
rule met

###

Would you kindly list MIC for each of these compounds?
Tested on: Bacillus cereus
protocolDetails: Antibacterial activity against Bacillus cereus MSCL 330 after 24 hrs by broth dilution method
Type: functional
conditionNotes: MSCL 330, 24 h
Give bare numbers, in µg/mL.

Worked examples, 3 compounds total:
[
  {
    "chemicalStructure": "CCCCCCCCCCOCCc1scnc1C",
    "assayValue": 2
  },
  {
    "chemicalStructure": "CCCCCCCCCC[n+]1csc(CCOCCCCCCC)c1C.[I-]",
    "assayValue": 8
  },
  {
    "chemicalStructure": "CCCCCCCCCCOCCc1sc[n+](C)c1C.[I-]",
    "assayValue": 32
  }
]

For CCCCCCCOCCc1scnc1C , write its MIC.
64

###

Tested on: Staphylococcus aureus
protocolDetails: Antibacterial activity against Staphylococcus aureus MSCL 334 at 5 mg/ml after 24 hrs by agar dish diffusion method
Type: functional
conditionNotes: MSCL 334, 24 h, read-out: DIZ
Could you label it class 1 if measured zone of inhibition at 5000 µg/mL is 20 mm or higher, and class 0 otherwise?

Use these answered entries as a reference point.
[
  {
    "chemicalStructure": "CCCCCCCCCCOCCc1sc[n+](C)c1C.[I-]",
    "targetOrTestSystem": "Staphylococcus aureus",
    "label": "class 1"
  },
  {
    "chemicalStructure": "CCCCCCCCCCCOCCc1sc[n+](C)c1C.[I-]",
    "targetOrTestSystem": "Staphylococcus aureus",
    "label": "class 1"
  },
  {
    "chemicalStructure": "CCCCCCCOCCc1scnc1C",
    "targetOrTestSystem": "Staphylococcus aureus",
    "label": "class 0"
  },
  {
    "chemicalStructure": "CCCCCCCCCCCOCCc1scnc1C",
    "targetOrTestSystem": "Staphylococcus aureus",
    "label": "class 0"
  }
]

zone of inhibition at 5000 µg/mL >= 20 mm for CCCCCCCCCC[n+]1csc(CCOCCCCCCC)c1C.[I-] ?
class 1

###

Test system: Aspergillus niger
protocolDetails: Antifungal activity against Aspergillus niger MSCL 324 at 10 mg/ml after 48 hrs by agar dish diffusion method
Format: functional
conditionNotes: MSCL 324, 48 h, read-out: DIZ
Would you kindly list zone of inhibition at 10000 µg/mL for each of these compounds?

Some solved entries appear below for comparison.
[
  {
    "chemicalStructure": "CCCCCCCCCCCOCCc1scnc1C",
    "zone of inhibition at 10000 µg/mL": "15 mm"
  },
  {
    "chemicalStructure": "Cc1c(CCO)sc[n+]1C.[I-]",
    "zone of inhibition at 10000 µg/mL": "15 mm"
  },
  {
    "chemicalStructure": "CCCCCCCOCCc1sc[n+](C)c1C.[I-]",
    "zone of inhibition at 10000 µg/mL": "11 mm"
  },
  {
    "chemicalStructure": "CCCCCCCCCCOCCc1sc[n+](C)c1C.[I-]",
    "zone of inhibition at 10000 µg/mL": "15 mm"
  },
  {
    "chemicalStructure": "CCCCCCCCCC[n+]1csc(CCOCCCCCCC)c1C.[I-]",
    "zone of inhibition at 10000 µg/mL": "19 mm"
  },
  {
    "chemicalStructure": "CCCCCCCOCCc1scnc1C",
    "zone of inhibition at 10000 µg/mL": "15 mm"
  },
  {
    "chemicalStructure": "CCCCCCCCCCCCCCCCCCOCCc1scnc1C",
    "zone of inhibition at 10000 µg/mL": "11 mm"
  },
  {
    "chemicalStructure": "CCCCCCCCCCOCCc1scnc1C",
    "zone of inhibition at 10000 µg/mL": "11 mm"
  }
]

Lab note: next compound to report on.
Write down zone of inhibition at 10000 µg/mL measured for item CCCCCCCCCCCOCCc1sc[n+](C)c1C.[I-]
17 mm
